Provenance of the data: patent US20170227547A1

Recorded measurements of FcRn column retention time, one per entry
target: human neonatal Fc receptor (FcRn), non-covalent complex with beta-2-microglobulin (human) (UniProt P55899); experiment: FcRn affinity chromatography, pH gradient 5.5-8.8, 140 mM NaCl (Example 2)
Sequence (P55899 other isoform, or with tags, fused parts or gaps limits assumed, chain 1 of 2): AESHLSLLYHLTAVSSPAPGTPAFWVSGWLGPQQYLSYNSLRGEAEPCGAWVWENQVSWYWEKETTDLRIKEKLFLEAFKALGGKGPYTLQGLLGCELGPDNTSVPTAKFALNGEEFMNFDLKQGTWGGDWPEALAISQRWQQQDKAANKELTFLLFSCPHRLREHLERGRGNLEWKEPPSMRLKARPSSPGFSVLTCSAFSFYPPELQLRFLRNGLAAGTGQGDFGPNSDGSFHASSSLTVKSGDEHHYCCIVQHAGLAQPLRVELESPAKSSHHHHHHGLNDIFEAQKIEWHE
Sequence (b2m, as listed by the source limits assumed, chain 2 of 2): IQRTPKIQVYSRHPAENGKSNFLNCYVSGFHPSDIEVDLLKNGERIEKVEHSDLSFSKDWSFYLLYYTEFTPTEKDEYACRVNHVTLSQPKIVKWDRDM
Number in min, nothing else.

| binder | recorded measurement |
| --- | --- |
| mAb 9 (antibody, IgG1, V domains shown, Briakinumab variant (IgG1) with three positively charged residues of the light chain CDRs mutated to alanine; also called Briakinumab with LC mutations R27A, R55A, R94A) VH: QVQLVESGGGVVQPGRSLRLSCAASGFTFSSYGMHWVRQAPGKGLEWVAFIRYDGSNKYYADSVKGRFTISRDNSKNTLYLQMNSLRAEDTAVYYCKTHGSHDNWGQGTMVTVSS VL: QSVLTQPPSVSGAPGQRVTISCSGSASNIGSNTVKWYQQLPGTAPKLLIYYNDQAPSGVPDRFSGSKSGTSASLAITGLQAEDEADYYCQSYDAYTHPALLFGTGTKVTVL | 86.2 |
| mAb 8 (antibody, IgG1, V domains shown, Briakinumab variant (IgG1) with five positively charged heavy chain residues mutated; also called Briakinumab with HC mutations R16A, R19A, K57A, K64A, R83A) VH: QVQLVESGGGVVQPGASLALSCAASGFTFSSYGMHWVRQAPGKGLEWVAFIRYDGSNAYYADSVAGRFTISRDNSKNTLYLQMNSLAAEDTAVYYCKTHGSHDNWGQGTMVTVSS VL: QSVLTQPPSVSGAPGQRVTISCSGSRSNIGSNTVKWYQQLPGTAPKLLIYYNDQRPSGVPDRFSGSKSGTSASLAITGLQAEDEADYYCQSYDRYTHPALLFGTGTKVTVL | 90.1 |
| mAb 3 (antibody, V domains shown, Heavy chains of Ustekinumab and light chains of Briakinumab (whole chains)) VH: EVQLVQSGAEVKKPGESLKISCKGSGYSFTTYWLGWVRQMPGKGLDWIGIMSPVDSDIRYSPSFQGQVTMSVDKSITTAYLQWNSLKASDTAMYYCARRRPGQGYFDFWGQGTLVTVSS VL: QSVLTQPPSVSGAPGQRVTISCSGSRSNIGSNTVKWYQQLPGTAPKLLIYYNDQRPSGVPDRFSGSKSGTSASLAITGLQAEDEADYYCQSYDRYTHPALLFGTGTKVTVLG | 92.4 |
| mAb 2 (antibody, V domains shown, Fv domain of Briakinumab on the Ustekinumab constant domains (IgG1)) VH: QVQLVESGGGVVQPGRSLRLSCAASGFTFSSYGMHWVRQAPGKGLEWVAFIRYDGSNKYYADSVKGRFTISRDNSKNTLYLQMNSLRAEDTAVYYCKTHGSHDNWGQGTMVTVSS VL: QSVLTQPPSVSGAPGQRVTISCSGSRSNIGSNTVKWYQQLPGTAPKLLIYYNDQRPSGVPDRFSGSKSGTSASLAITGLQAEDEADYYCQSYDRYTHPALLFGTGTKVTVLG | 93 |

Below: the item to evaluate.
## Task # return recorded FcRn column retention time for input mAb 1 (antibody, V domains shown, Fv domain of Ustekinumab on the constant parts of Briakinumab (IgG1)) VH: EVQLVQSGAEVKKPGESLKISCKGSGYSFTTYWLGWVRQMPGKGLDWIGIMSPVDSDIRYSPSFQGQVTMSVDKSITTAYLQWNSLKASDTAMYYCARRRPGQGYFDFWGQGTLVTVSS VL: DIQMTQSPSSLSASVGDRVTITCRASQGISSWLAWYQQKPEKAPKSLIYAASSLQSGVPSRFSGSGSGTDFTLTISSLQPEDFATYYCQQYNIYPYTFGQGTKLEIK
## Result 84.3
